Hi there, I'd appreciate the recorded pIC50 for every entry that follows.
Measured target: recombinant human TopI (HTopI) (Homo sapiens)
Sequence (P11387 1-765): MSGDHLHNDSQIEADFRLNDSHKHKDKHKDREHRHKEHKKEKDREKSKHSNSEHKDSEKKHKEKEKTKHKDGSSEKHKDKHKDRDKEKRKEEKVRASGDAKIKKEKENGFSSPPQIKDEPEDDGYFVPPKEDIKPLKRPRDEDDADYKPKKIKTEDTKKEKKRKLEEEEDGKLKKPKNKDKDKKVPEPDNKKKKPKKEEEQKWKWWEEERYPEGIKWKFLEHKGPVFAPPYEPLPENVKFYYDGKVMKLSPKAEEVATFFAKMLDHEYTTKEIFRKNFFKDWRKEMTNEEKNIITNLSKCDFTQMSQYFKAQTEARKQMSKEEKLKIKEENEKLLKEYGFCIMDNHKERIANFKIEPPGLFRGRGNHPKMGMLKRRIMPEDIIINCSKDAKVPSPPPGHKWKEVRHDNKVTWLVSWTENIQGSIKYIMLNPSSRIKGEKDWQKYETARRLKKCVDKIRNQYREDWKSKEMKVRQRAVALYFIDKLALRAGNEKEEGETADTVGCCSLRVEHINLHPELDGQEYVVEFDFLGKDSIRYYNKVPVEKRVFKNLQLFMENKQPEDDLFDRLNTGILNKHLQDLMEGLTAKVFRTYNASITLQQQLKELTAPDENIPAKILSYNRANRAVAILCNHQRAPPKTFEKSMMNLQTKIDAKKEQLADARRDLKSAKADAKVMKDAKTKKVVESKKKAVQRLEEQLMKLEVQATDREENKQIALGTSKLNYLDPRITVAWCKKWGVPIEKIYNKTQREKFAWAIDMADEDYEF
Protocol notes: Gel based plasmid DNA relaxation assay with recombinant TopI (in vitro)
Run conditions: recombinant human TopI, plasmid DNA relaxation
// returns pIC50 (minus log10 of molar concentration), number only

Which pIC50 is listed for Nc1ccc(-c2ccc3ncc(-c4nnco4)c(NCCCn4ccnc4)c3c2)cc1 ?
7.62

Which pIC50 is listed for c1cncc(-c2ccc3ncc(-c4nnco4)c(NCCCn4ccnc4)c3c2)c1 ?
6.40

Which pIC50 is listed for Cc1ccc(-c2ccc3ncc(-c4nnco4)c(NCCCn4ccnc4)c3c2)cc1 ?
5.97

Which pIC50 is listed for COc1ccc(-c2ccc3ncc(-c4nnco4)c(NCCCn4ccnc4)c3c2)cc1C ?
5.63

Which pIC50 is listed for COc1ccc(-c2ccc3ncc(-c4nnco4)c(NCCCn4ccnc4)c3c2)cn1 ?
7.77

Which pIC50 is listed for Nc1ccc(-c2ccc3ncc(-c4nnco4)c(NCCCn4ccnc4)c3c2)cn1 ?
7.68

Which pIC50 is listed for COc1cccc(-c2ccc3ncc(-c4nnco4)c(NCCCn4ccnc4)c3c2)c1 ?
5.98

Which pIC50 is listed for COc1ccc(-c2ccc3ncc(-c4ccc(N)nc4)c(NCCCn4ccnc4)c3c2)cc1 ?
5.28

* * *

Protocol notes: Cytotoxicity assay, HEK293
Run conditions: human
Readout type: IC50 (µM)
Quick reminder: number only, in µM, skip the unit.

Which IC50 is listed for COc1ccc(-c2ccc3ncc(-c4nnco4)c(NCCCn4ccnc4)c3c2)cc1 ?
8.34

* * *

Protocol notes: Lipophilicity assay (octanol/buffer Log D)
Run conditions: n-octanol/sodium phosphate buffer, pH 7.4
Readout type: logD
No unit in the answer, please; the number alone is enough.

Which logD is listed for c1cncc(-c2ccc3ncc(-c4nnco4)c(NCCCn4ccnc4)c3c2)c1 [Compound 30] ?
3.54

Which logD is listed for COc1ccc(-c2ccc3ncc(-c4nnco4)c(NCCCn4ccnc4)c3c2)cn1 [Compound 33] ?
2.79

Which logD is listed for Nc1ccc(-c2ccc3ncc(-c4nnco4)c(NCCCn4ccnc4)c3c2)cn1 [Compound 24] ?
3.51

* * *

Protocol notes: Caco-2 permeability (21 day culture of Caco-2 cell monolayer)
Type: in vitro ADME
Run conditions: human, pH 7.4; Caco-2, 10 μM, 120 min; read-out: Papp Apical to Basal
Use 8 ×10⁻⁶ cm/s as the dividing line for Papp A→B at 120 min, 10 μM, with the line itself on the YES side and lower values as NO.

Hi team, for Nc1ccc(-c2ccc3ncc(-c4nnco4)c(NCCCn4ccnc4)c3c2)cc1 , is the recorded Papp A→B at 120 min, 10 μM at or above 8 ×10⁻⁶ cm/s?
NO

Hi team, for c1cncc(-c2ccc3ncc(-c4nnco4)c(NCCCn4ccnc4)c3c2)c1 , is the recorded Papp A→B at 120 min, 10 μM at or above 8 ×10⁻⁶ cm/s?
NO

Hi team, for COc1ccc(-c2ccc3ncc(-c4nnco4)c(NCCCn4ccnc4)c3c2)cc1 , is the recorded Papp A→B at 120 min, 10 μM at or above 8 ×10⁻⁶ cm/s?
NO

Hi team, for CC(C)NCC(O)COc1cccc2ccccc12 (stereo not shown) [Propranolol, reference compound] , is the recorded Papp A→B at 120 min, 10 μM at or above 8 ×10⁻⁶ cm/s?
YES

Hi team, for Nc1ccc(-c2ccc3ncc(-c4nnco4)c(NCCCn4ccnc4)c3c2)cn1 , is the recorded Papp A→B at 120 min, 10 μM at or above 8 ×10⁻⁶ cm/s?
NO

Hi team, for COc1ccc(-c2ccc3ncc(-c4nnco4)c(NCCCN4CCOCC4)c3c2)cc1 , is the recorded Papp A→B at 120 min, 10 μM at or above 8 ×10⁻⁶ cm/s?
YES

* * *

Protocol notes: Caco-2 permeability (21 day culture of Caco-2 cell monolayer)
Format: in vitro ADME
Run conditions: human, Caco-2, pH 7.4
Readout type: efflux ratio at 120 min, 10 μM
No unit in the answer, please; the number alone is enough.

Which efflux ratio at 120 min, 10 μM is listed for Nc1ccc(-c2ccc3ncc(-c4nnco4)c(NCCCn4ccnc4)c3c2)cn1 [Compound 24] ?
4.54

Which efflux ratio at 120 min, 10 μM is listed for c1cncc(-c2ccc3ncc(-c4nnco4)c(NCCCn4ccnc4)c3c2)c1 [Compound 30] ?
40

Which efflux ratio at 120 min, 10 μM is listed for COc1ccc(-c2ccc3ncc(-c4nnco4)c(NCCCn4ccnc4)c3c2)cn1 [Compound 33] ?
4.01

* * *

Protocol notes: Plasma stability assay
Type: in vitro ADME
Run conditions: pH 7.4, 37° C., 1 μM
Readout type: Mean % remaining at 2 hrs in human Plasma
Give the value; after it, write the unit.

Which Mean % remaining at 2 hrs in human Plasma is listed for COc1ccc(-c2ccc3ncc(-c4nnco4)c(NCCCN4CCOCC4)c3c2)cc1 [Compound 43] ?
83.38%

Which Mean % remaining at 2 hrs in human Plasma is listed for CC[C@@]1(O)C(=O)OCc2c1cc1n(c2=O)Cc2cc3ccccc3nc2-1 [Camptothecin, reference compound] ?
15.70%

Which Mean % remaining at 2 hrs in human Plasma is listed for COc1ccc(-c2ccc3ncc(-c4nnco4)c(NCCCn4ccnc4)c3c2)cn1 [Compound 33] ?
102.28%

Which Mean % remaining at 2 hrs in human Plasma is listed for COc1ccc(-c2ccc3ncc(-c4nnco4)c(NCCCn4ccnc4)c3c2)cc1 [Compound 18] ?
93.34%

Which Mean % remaining at 2 hrs in human Plasma is listed for c1cncc(-c2ccc3ncc(-c4nnco4)c(NCCCn4ccnc4)c3c2)c1 [Compound 30] ?
14.62%

Which Mean % remaining at 2 hrs in human Plasma is listed for CC(C)[N+](C)(CCOC(=O)C1c2ccccc2Oc2ccccc21)C(C)C [Propantheline, reference compound] ?
0.00%

Which Mean % remaining at 2 hrs in human Plasma is listed for Nc1ccc(-c2ccc3ncc(-c4nnco4)c(NCCCn4ccnc4)c3c2)cc1 [Compound 20] ?
91.32%

Which Mean % remaining at 2 hrs in human Plasma is listed for Nc1ccc(-c2ccc3ncc(-c4nnco4)c(NCCCn4ccnc4)c3c2)cn1 [Compound 24] ?
84.18%

* * *

Protocol notes: Caco-2 permeability (21 day culture of Caco-2 cell monolayer)
Format: in vitro ADME
Run conditions: human, Caco-2, pH 7.4, Caco-2; read-out: A to B % Recovery
Hi there, I'd appreciate the recorded recovery at 120 min, 10 μM for every entry that follows.
Quick reminder: number only, in %, skip the unit.

Which recovery at 120 min, 10 μM is listed for Nc1ccc(-c2ccc3ncc(-c4nnco4)c(NCCCn4ccnc4)c3c2)cc1 ?
72.7

Which recovery at 120 min, 10 μM is listed for c1cncc(-c2ccc3ncc(-c4nnco4)c(NCCCn4ccnc4)c3c2)c1 ?
84.8

Which recovery at 120 min, 10 μM is listed for CC(C)NCC(O)COc1cccc2ccccc12 (stereo not shown) [Propranolol, reference compound] ?
68

Which recovery at 120 min, 10 μM is listed for COc1ccc(-c2ccc3ncc(-c4nnco4)c(NCCCn4ccnc4)c3c2)cc1 ?
33.2

Which recovery at 120 min, 10 μM is listed for COc1ccc(-c2ccc3ncc(-c4nnco4)c(NCCCN4CCOCC4)c3c2)cc1 ?
42.6

Which recovery at 120 min, 10 μM is listed for Nc1ccc(-c2ccc3ncc(-c4nnco4)c(NCCCn4ccnc4)c3c2)cn1 ?
77.3

Which recovery at 120 min, 10 μM is listed for COc1ccc(-c2ccc3ncc(-c4nnco4)c(NCCCn4ccnc4)c3c2)cn1 ?
83.9
